measurement_label: melting point

Previously resolved entries follow.
INSERT INTO assay_data (molecule, measurement_label, endpoint_value) VALUES
  ('CCC1(COCc2ccccc2Cl)CCC(C)(C(N)=S)O1 (stereo not given)', 'melting point', '78 to 80 °C'),
  ('Cc1nc(-c2ccccc2)nc(-c2ccncc2)c1NC(=O)OC(C)(C)C', 'melting point', '166 to 167 °C'),
  ('CCCCCCCCC#CCC#CCC#CCSCC(=O)NCCO', 'melting point', '77 °C'),
  ('COC(=O)c1c(F)cc(OCCNC(=O)C2Cc3ccccc3N2S(=O)(=O)c2ccc(-c3ccc(F)cc3OC)cc2)cc1F (stereo not given)', 'melting point', '65 to 76 °C');

Kindly consider the entry below.
Input line: Reported melting point for N#CC(C(=O)Nc1ccccc1)C(=O)c1ccc[nH]1 (stereo not given) : what is it?
Output line: 207 to 209 °C

These measurements were taken from a melting point compilation (Tetko et al.; mined from patent text by program, amines drawn as free bases though some values may be those of a salt).
